# Test system: Mus musculus
# methodNotes: In vivo antibacterial activity against Escherichia coli (Vogel) in mice administered subcutaneously
# Type: functional
# measurementContext: sc, read-out: PD50
Here, each record is paired with measured ED50 data.
Quick note: give the figure in mg/kg, leave out the unit.

>  <molecule>
C[C@H]1COc2c(N3CCN(C)CC3)c(F)cc3c(=O)c(C(=O)O)cn1c23.C[C@H]1COc2c(N3CCN(C)CC3)c(F)cc3c(=O)c(C(=O)O)cn1c23.O

>  <targetEntity>
Mus musculus

>  <unitTag>
mg/kg

>  <ED50>
3.8

$$$$
>  <molecule>
CC1COc2c(N3CCN(C)CC3)c(F)cc3c(=O)c(C(=O)O)cn1c23 (centres undefined)

>  <targetEntity>
Mus musculus

>  <unitTag>
mg/kg

>  <ED50>
1.2

$$$$

Prompt line: Provide ED50, system Mus musculus, entry `O=C(O)c1cn(C2CC2)c2cc(N3CCNCC3)c(F)cc2c1=O`
Response line: 0.2

Prompt line: System Mus musculus. Read-out ED50. Item `CN1CCN(c2c(F)cc3c(=O)c(C(=O)O)cn4c3c2OCC42CC2)CC1` . Report value.
Response line: 1.9
